Data credit: PubChem BioAssay

experiment: growth inhibition of GSK3B-pretreated HCT116 cells – cell-based, CellTiter-Glo, 0.2 to 20 µM (AID 1117336); conditions: HCT116 viability after GSK3B inhibitor, at 20 µM, stronger effect = higher value
parameter measured: viability decrease (%)
Give just the numeric value; % need not be written.

Given the entry OC1C(O)C(O)C(O)C(O)C1O (configuration not stated) , report its measured viability decrease.
-3.8

Which viability decrease reading was recorded for the molecule CCC(C)(CN(C)C)OC(=O)c1ccccc1 (configuration not stated) ?
-25.9

Query: viability decrease; subject: OCCOCCN1CCN(C(c2ccccc2)c2ccc(Cl)cc2)CC1 (configuration not stated)
-78.9

Quick check: viability decrease of Cc1cc2c(cc1CC(=O)c1sccc1S(=O)(=O)Nc1onc(C)c1Cl)OCO2 ?
2.7

Consider the molecule shown here: C[C@]12CC[C@@H]3c4ccc(O)cc4C[C@@H](CCCCCCCCCS(=O)CCCC(F)(F)C(F)(F)F)[C@H]3[C@@H]1CC[C@@H]2O (some centres not stated) What is its recorded viability decrease?
-4.5

Returns the measured viability decrease for the input molecule. Input: O=C(NOCC1CC1)c1ccc(F)c(F)c1Nc1ccc(I)cc1Cl
43.3

Can you share its viability decrease? I mean this molecule: O=C(O)COC(=O)Cc1ccccc1Nc1c(Cl)cccc1Cl
30.7

Please report the recorded viability decrease for S=C=Nc1ccc(N=C=S)cc1 .
77.2

Give its viability decrease value. Item: Clc1ccccc1CN1CCc2sccc2C1
13.8

Quick check: viability decrease of CC(C)(C)C(=O)OCOP(=O)(COCCn1cnc2c(N)ncnc21)OCOC(=O)C(C)(C)C ?
95.4

Would you kindly share the measured viability decrease for COc1nc(N)nc2c1ncn2[C@@H]1O[C@H](CO)[C@@H](O)[C@@H]1O ?
-1.5

Quick check: viability decrease of CC=CC1=C(C(=O)O)N2C(=O)[C@@H](NC(=O)[C@H](N)c3ccc(O)cc3)[C@H]2SC1 ?
4.9

I'd like to know its viability decrease. The molecule in question is CC(C)(C)NCC(O)COc1cccc2c1CCC(=O)N2 (configuration not stated)
-25.9

If you can, please state the reported viability decrease value of COC(=O)C1=C(C)NC(C)=C(C(=O)OCCN(C)Cc2ccccc2)C1c1cccc([N+](=O)[O-])c1 (configuration not stated) .
91.4

Which viability decrease reading was recorded for the molecule CC1CCc2c(N3CCC(O)CC3)c(F)cc3c(=O)c(C(=O)O)cn1c23 (configuration not stated) ?
74.1

State the recorded viability decrease for this entry: CN(c1nccc(=O)[nH]1)C1CCN(c2nc3ccccc3n2Cc2ccc(F)cc2)CC1
-6.8

Bench note: what viability decrease did COc1cc(C=O)ccc1O show?
1.37

Sample CCCCNc1ccc(C(=O)OCCOCCOCCOCCOCCOCCOCCOCCOCCOC)cc1 — what was its viability decrease?
9.3

Report viability decrease for CCOc1ccccc1C(N)=O please.
-5.85

Look up viability decrease: CN(C(=O)CN(CCO)CC(=O)N(C)C(C)(C)Cc1ccccc1)C(C)(C)Cc1ccccc1
-33.9

# viability decrease lookup, item CC(C)Cn1cnc2c1c(=O)n(C)c(=O)n2C
0

Any idea what viability decrease was measured for CCCC(=O)OCOC(=O)C1=C(C)NC(C)=C(C(=O)OC)C1c1cccc(Cl)c1Cl (configuration not stated) ?
-9.1

====

test: growth inhibition of GSK3B-pretreated HCT116 cells – cell-based, CellTiter-Glo, 0.2 to 20 µM (AID 1117336); conditions: HCT116 viability after GSK3B inhibitor, at 20 µM
The source made the active and inactive calls.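 The calls were made as follows: active = compounds lowering colon cancer cell viability after pretreatment blocking the GSK3B kinase; inactive = the rest.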
Pick one and only one: active, inactive

How was CC(=O)NC(Cc1ccccc1)C(=O)O (configuration not stated) classified in this test?
inactive

Which result was noted for this compound in the test: CCCCCCOC(=O)NC(=N)c1ccc(NCc2nc3cc(C(=O)N(CCC(=O)OCC)c4ccccn4)ccc3n2C)cc1
active

// return assay outcome for CC[C@@H](CO)NCCN[C@@H](CC)CO
inactive

Given NCCCNCCSP(=O)(O)O , state the outcome it received in this test.
inactive

Can you look up the reported call for CCCOc1cc(N)ccc1C(=O)OCCN(CC)CC for me?
inactive

Identify the outcome logged in this assay for the compound shown: CC(C)(C)C(=O)Oc1ccc(S(=O)(=O)Nc2ccccc2C(=O)NCC(=O)O)cc1
active

Any idea what this test logged for Clc1cccc(C(c2ccc3nc[nH]c3c2)n2ccnc2)c1 (configuration not stated) ?
inactive

====

assay: CellTiter-Glo luminescent readout of SW480 viability loss, NPC library primary (AID 1117343); details: CellTiter-Glo luminescence; at 20 µM (top of the series) unless noted
The source made the active and inactive calls.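 Rule for the calls: active = compounds that lower viability of the colon cancer cells in the luminescence readout, with no numeric limit stated; inactive = the rest.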
Thanks in advance; please answer with one of these: true (1) (active), false (0) (inactive)

So what was the verdict on CC(C)Cn1cnc2c1c(=O)n(C)c(=O)n2C in this test?
false (0)

Answer briefly: the call reported for CCC(C)(C)c1ccc(CC(C)CN2C[C@@H](C)O[C@@H](C)C2)cc1 (some centres undefined) in this assay.
true (1)

Hi team, can someone confirm the assay call for O=[N+]([O-])c1cccc(S(=O)(=O)NCCNS(=O)(=O)c2cccc([N+](=O)[O-])c2)c1 ?
false (0)

Per the records of this test, what outcome belongs to O=C1OC(OC(=O)c2cccnc2Nc2cccc(C(F)(F)F)c2)c2ccccc21 (centres undefined) ?
true (1)

What outcome does the record of this test show for CC(C)C[C@H](NC(=O)[C@H](CCc1ccccc1)NC(=O)CN1CCOCC1)C(=O)N[C@@H](Cc1ccccc1)C(=O)N[C@@H](CC(C)C)C(=O)[C@@]1(C)CO1 ?
true (1)

Which outcome was assigned to CO[C@]1(NC(=O)CSC(F)F)C(=O)N2C(C(=O)O)=C(CSc3nnnn3CCO)CO[C@H]21 in this test?
false (0)

What outcome does the record of this test show for O=C(Nc1ccc(C(=O)O)c(O)c1)c1ccccc1 ?
true (1)

How was CC(C)(C)NCC(O)c1ccc(O)c(CO)c1 (centres undefined) classified in this test?
false (0)

Fill in: this test's call for CCCCC(=O)O[C@]1(C(=O)CO)CC[C@H]2[C@@H]3CCC4=CC(=O)CC[C@]4(C)[C@H]3[C@@H](O)C[C@@]21C is ___
false (0)

====

test: sensitizers of A549 cells to miR-34 induction, primary screen, imaging, A549 dox-inducible miR-34, nuclei and caspase counts (AID 1347080); conditions: A549 miR-34 inducible, Hoechst nuclei count, 48 h; stronger effect = lower value; cell number ratio, induced over uninduced
Binary call on fold change with cut-off 1: strictly below means Criterion met, and equality or higher means Criterion not met.

Item C#Cc1cccc(Nc2ncnc3cc(OCCOC)c(OCCOC)cc23)c1 : fold change beneath 1, strictly?
Criterion met

State whether 1 exceeds fold change recorded for O=C1O[C@H]([C@@H](O)CO)C(O)=C1O .
Criterion met

# check: fold change < 1 for NC1[C@H]2CN(c3nc4c(cc3F)c(=O)c(C(=O)O)cn4-c3ccc(F)cc3F)C[C@@H]12 (stereo not given in full)
Criterion not met

====

test: rescue of polyQ-huntingtin neuronal dysfunction in worms, whole organism, C. elegans mechanosensory neurons, N-terminal huntingtin (AID 1599); conditions: touch response, stronger effect = higher value
Potency and affinity values are given separately. Peptide text beside a SMILES is read from it.
Would you mind telling me the reported rescue above control of each entry?
Form: value (number only, do not type unit).

Quick check: rescue above control of CC[C@@H](CO)NCCN[C@@H](CC)CO ?
2.87

So what does the record say about rescue above control for NC(N)=NCCC[C@@H](NC(=O)[C@@H](N)Cc1ccc(O)cc1)C(=O)O ?
13.2

Query: rescue above control; subject: CC(C)OC(=O)C(C)(C)Oc1ccc(C(=O)c2ccc(Cl)cc2)cc1
27.1

Which rescue above control is reported for this molecule? COc1ccc2c3c1O[C@H]1C[C@@H](O)C=C[C@@]31CCN(C)C2
0.01

Field request: rescue above control | item: O=C1C=CC(=C(c2ccc(O)cc2)c2ccc(O)cc2)C=C1
-3.26

What does the data say about its rescue above control? Entry: CN1CCc2c(c3ccccc3n2Cc2ccccc2)C1
-5.3

Record request: rescue above control value, item C[N+](C)(C)CC(O)CC(=O)O (configuration not stated)
-5.96

What rescue above control value was documented for this molecule, NCCCCC(N)C(=O)NC(Cc1ccc(O)cc1)C(=O)NC(CCCCN)C(=O)O (stereo not drawn) (H-Lys-Tyr-Lys-OH; configuration not given here) ?
16.1

Any idea what rescue above control was measured for CCOc1ccccc1OCC1CNCCO1 (configuration not stated) ?
-3.95

Reported rescue above control for COC(=O)C1=C(C)NC(C)=C(C(=O)OC)C1c1ccccc1[N+](=O)[O-] : what is it?
8.1

// query rescue above control value for entry CN(C)CC/C=C1\c2ccccc2Sc2ccc(Cl)cc21
0

Request the reported rescue above control associated with CNCCc1ccccn1
-9.72

Looking for the measured rescue above control of COc1cc(Cc2cnc(N)nc2N)cc(OC)c1OC , can you help?
11.6

Name the reported rescue above control value associated with the molecule CC(C(=O)O)c1ccc(N2Cc3ccccc3C2=O)cc1 (configuration not stated)
-4.46

What does the data say about its rescue above control? Entry: CCOC(=O)CCC(=O)O[C@H]1[C@H](O[C@@H]2[C@@H](C)[C@H](O[C@H]3C[C@@](C)(OC)[C@@H](O)[C@H](C)O3)[C@@H](C)C(=O)O[C@H](CC)[C@@](C)(O)[C@H](O)[C@@H](C)C(=O)[C@H](C)C[C@@]2(C)O)O[C@H](C)C[C@@H]1N(C)C
16.6

Suppose we examine the molecule CN1C(=O)CC[C@H]1c1cccnc1 ; what rescue above control value has been reported?
-5.98

May I ask what rescue above control has been recorded for CCOc1ccc2c(c1)C(C)=CC(C)(C)N2 ?
5.1

Give the measured rescue above control of Cn1cc[nH]c1=S .
-4.12

What does the record list as rescue above control for CC(=O)c1c(O)c(C)c(O)c2c1OC1=CC(=O)C(C(C)=O)C(=O)C12C (configuration not stated) ?
1.6

For the molecule shown here, COc1ccc2cc([C@H](C)C(=O)O)ccc2c1 , give the reported rescue above control.
-11.2

Sample O=C(O)CN(CC(=O)O)Cc1cc2c(-c3ccccc3C(=O)O)c3cc(CN(CC(=O)O)CC(=O)O)c(=O)cc-3oc2cc1O — what was its rescue above control?
-5.14

Fill in the blank: the reported rescue above control of O=C(O)CN(CCN(CC(=O)O)CC(=O)O)CC(=O)O is ____.
-6.51
